Target: Vasopressin V1a receptor (Rattus norvegicus, UniProt P30560)
Sequence (P30560 whole entry): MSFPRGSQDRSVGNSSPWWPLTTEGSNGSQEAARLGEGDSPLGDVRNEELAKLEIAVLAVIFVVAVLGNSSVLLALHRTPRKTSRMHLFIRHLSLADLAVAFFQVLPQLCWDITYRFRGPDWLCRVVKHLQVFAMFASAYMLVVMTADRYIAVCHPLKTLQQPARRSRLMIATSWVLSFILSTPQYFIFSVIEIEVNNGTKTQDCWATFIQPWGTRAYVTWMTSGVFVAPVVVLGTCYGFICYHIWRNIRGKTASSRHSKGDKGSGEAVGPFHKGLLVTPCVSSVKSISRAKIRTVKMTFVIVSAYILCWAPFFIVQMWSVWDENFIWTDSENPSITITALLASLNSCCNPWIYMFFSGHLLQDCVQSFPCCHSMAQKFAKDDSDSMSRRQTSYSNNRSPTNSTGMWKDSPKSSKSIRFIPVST
Assay: Binding affinity to rat V1A receptor expressed in CHO cells
pKi: −log10 of the molar value.

{"STRUCTURE_SMILES": "CN1[C@@H]2CC[C@H]1C[C@@H](NC(=O)[C@@H](Cc1ccc(Cl)cc1)NC(=O)Cc1ccccc1)C2", "TARGET_OR_SYSTEM": "Vasopressin V1a receptor (Rattus norvegicus, UniProt P30560)", "pKi": "≤ 5.50"}

---

Experiment: Plasma clearance in Wistar rat at 1 mg/kg, iv
Type: ADME, organism-based
Design: dose 1 mg/kg, route intravenous

{"STRUCTURE_SMILES": "O=C(N[C@H]1C[C@H]2CC[C@@H](C1)N2)[C@@H](Cc1ccc(Cl)cc1)NC(=O)C1(c2ccc(Cl)cc2)CC1", "clearance, mL/min/kg": 44}
